# measuredOn: 5-HT2A receptor (UniProt P28223)
# testDetails: 5-HT2A receptor radioligand binding ([3H]ketanserin);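 also: competitive displacement binding on membranes, either from rat cerebral cortex or from NIH3T3 cells stably expressing human 5-HT2A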
# conditionContext: read-out: Ki 5-HT2A, table does not say whether rat cortex or human recombinant (NIH3T3) receptor, citrate salt
Counter-ions that a name gives are not always drawn.
measuredParameter: Ki

What value of Ki has been recorded for this entry: Clc1ccc(-c2nn(Cc3ccccc3)c3c2CCNCC3)cc1 [Example 273, citrate salt]
400 nM

* * *

# measuredOn: human recombinant 5-HT2B receptor (Homo sapiens, UniProt P41595)
# Sequence (P41595 whole entry): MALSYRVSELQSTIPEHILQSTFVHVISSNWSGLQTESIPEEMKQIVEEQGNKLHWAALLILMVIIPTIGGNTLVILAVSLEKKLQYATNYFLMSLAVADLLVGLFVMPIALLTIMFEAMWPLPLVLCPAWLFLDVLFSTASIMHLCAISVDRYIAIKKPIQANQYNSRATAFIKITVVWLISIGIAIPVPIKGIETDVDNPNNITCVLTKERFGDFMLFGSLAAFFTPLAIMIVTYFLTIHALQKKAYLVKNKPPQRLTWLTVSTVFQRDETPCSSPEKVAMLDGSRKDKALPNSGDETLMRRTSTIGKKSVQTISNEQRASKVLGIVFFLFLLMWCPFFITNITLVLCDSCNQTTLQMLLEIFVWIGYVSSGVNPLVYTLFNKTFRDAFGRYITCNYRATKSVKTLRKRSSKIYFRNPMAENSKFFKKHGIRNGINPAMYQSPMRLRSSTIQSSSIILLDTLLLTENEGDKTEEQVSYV
# testDetails: 5-HT2B receptor radioligand binding ([3H]mesulergine, CHO membranes);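 also: competitive displacement binding on membranes of CHO cells stably expressing the receptor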
pKi: −log10 of the molar value.
# label = true (1) if pKi >= 8 else false (0)

molecule: c1ccc(Cn2nc(-c3cccs3)c3c2CCNCC3)cc1 [Example 104]
groupLabel: false (0)
//
molecule: CC1Cc2nn(C(C)C)c(-c3ccc(F)cc3)c2CCN1 (centres unmarked) [Example 313]
groupLabel: false (0)
//
molecule: CCc1ccc(-c2c3c(nn2C(C)C)CCNCC3)cc1 [Example 210]
groupLabel: true (1)
//
molecule: N#Cc1ccc(-c2c3c(nn2C2CC2)CCNCC3)cc1 [Example 286]
groupLabel: false (0)

Is it the case that Cc1ccc(-c2c3c(nn2C(C)C)CC(C)NCC3)cc1 (centres unmarked) [Example 315] has pKi reaching or exceeding 8?
true (1)

Is reported pKi greater than or equal to 8 here: Cc1ccc(-c2c3c(nn2C2CCC2)CCNCC3)cc1 [Example 278]
true (1)

Identify whether the reported pKi of the following molecule is 8 or greater: Clc1ccc(-c2nn(Cc3cccs3)c3c2CCNCC3)cc1 [Example 103]
false (0)

Answer whether pKi of CC(C)n1nc2c(c1-c1ccc([N+](=O)[O-])cc1)CCNCC2 [Example 253] is greater than or equal to 8.
false (0)

API: above_or_equal(metric=pKi, cutoff=8) for item Clc1ccc(-c2c3c(nn2C2CCCCC2)CCNCC3)cc1 [Example 178]
true (1)

Record CN1CCc2nn(C3CCCC3)c(-c3ccc(F)cc3)c2CC1 [Example 302] ; criterion: pKi no lower than 8. Met?
true (1)

Decide: pKi of COc1ccc(CN2CCc3[nH]nc(-c4ccc(Cl)cc4)c3CC2)cc1OC [Example 167] >= 8?
false (0)
